Numbers sourced from patent EP3620472A1.

Target: cynomolgus PAI-1 (cynomolgus (Macaca fascicularis), UniProt P05121 24-402 (human entry))
Experiment: cell-based or functional assay
recorded-metric: Cyno PAI-1 neutralization Y50% (%)

binder	meas-value
A44-hv11 (antibody, V domains shown, constant regions only as pictures; also called A44V11; A44v11) VH: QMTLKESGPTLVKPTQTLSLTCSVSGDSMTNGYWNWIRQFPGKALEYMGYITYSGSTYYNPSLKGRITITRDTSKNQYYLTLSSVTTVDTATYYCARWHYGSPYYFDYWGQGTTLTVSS VL: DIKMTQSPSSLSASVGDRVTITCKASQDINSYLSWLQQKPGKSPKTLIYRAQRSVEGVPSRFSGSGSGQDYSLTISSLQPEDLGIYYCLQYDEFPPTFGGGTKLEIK	50.8
